Biological target: human TYRO3 (455-end) (Homo sapiens)
Construct: TYRO3 (455-end); purchased SignalChem, Canada
Sequence (Q06418 455-890 limits assumed): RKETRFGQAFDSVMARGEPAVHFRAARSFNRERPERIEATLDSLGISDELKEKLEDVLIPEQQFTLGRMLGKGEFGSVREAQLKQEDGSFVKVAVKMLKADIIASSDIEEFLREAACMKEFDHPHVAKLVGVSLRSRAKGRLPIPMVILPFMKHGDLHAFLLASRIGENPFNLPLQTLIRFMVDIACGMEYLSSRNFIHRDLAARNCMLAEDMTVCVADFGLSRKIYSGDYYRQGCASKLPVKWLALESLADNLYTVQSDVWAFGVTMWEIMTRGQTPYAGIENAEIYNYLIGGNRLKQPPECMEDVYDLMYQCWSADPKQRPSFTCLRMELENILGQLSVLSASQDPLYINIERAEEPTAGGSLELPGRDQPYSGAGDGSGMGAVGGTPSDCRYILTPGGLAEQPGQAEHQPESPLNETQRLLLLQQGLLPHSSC
Assay: HTRF kinase activity biochemical assay, TYRO3
Conditions: 10 μM ATP, 30 minutes pre-incubation; read-out: HTRF TYRO IC50
pIC50: −log10 of the molar value.
value-type: pIC50

1. CN1CCN(C2CCC(C)(C)c3cc(-c4ccc(CO[C@H]5CCC[C@@H]5NC(=O)c5cc(-c6cnn(C)c6)cnc5N)cc4)ccc32)CC1 (stereo partly drawn) = 7.00 to 8.00
2. CC1(C)C[C@@H](N2CCN(CCO)CC2)c2ccc(-c3ccc(CO[C@H]4CCC[C@@H]4NC(=O)c4cc(-c5cccnc5F)cnc4N)cc3)cc21 = 6.00 to 7.00
3. Cn1cc(-c2cnc(N)c(C(=O)N[C@H]3CCC[C@@H]3OCc3ccc(-c4cccc5cc[nH]c45)cc3)c2)cn1 = < 6.00
4. Cn1cc(-c2cnc(N)c(C(=O)N[C@H]3CCC[C@@H]3OCc3ccc(-c4ccc5c(ccn5CC(=O)O)c4)cc3)c2)cn1 = < 6.00
5. CC1(C)OCC(CN2CCN(C3CCc4cc(-c5ccc(CO[C@H]6CCC[C@@H]6NC(=O)c6cc(-c7ccc(F)nc7)cnc6N)cc5)ccc43)CC2)O1 (stereo partly drawn) = < 6.00
6. Cc1[nH]c2ccc(-c3ccc(CO[C@H]4CCC[C@@H]4NC(=O)c4cc(-c5cnn(C)c5)cnc4N)cc3)cc2c1C = < 6.00
7. Nc1ncc(-c2ccc(F)nc2)cc1C(=O)N[C@H]1CCC[C@@H]1OCc1ccc(-c2ccc3c(c2)C[C@H](F)[C@@H]3N2CCN(CCO)CC2)cc1 (relative stereo) = < 6.00
8. CN1CCC(c2c[nH]c3cc(-c4ccc(CO[C@H]5CCC[C@@H]5NC(=O)c5cc(-c6cnn(C)c6)cnc5N)cc4)ccc23)CC1 = < 6.00
9. CC1(C)CC(N2CCN(C(CO)CO)CC2)c2ccc(-c3ccc(CO[C@H]4CCC[C@@H]4NC(=O)c4cc(-c5cccnc5F)cnc4N)cc3)cc21 (stereo partly drawn) = 6.00 to 7.00
10. Nc1ncc(-c2cccnc2F)cc1C(=O)N[C@H]1CCC[C@@H]1OCc1ccc(-c2ccc3c(c2)CC[C@@H]3N2CCN(C[C@@H](O)CO)CC2)cc1 = 6.00 to 7.00
11. Nc1ncc(-c2cccnc2F)cc1C(=O)N[C@H]1CCC[C@@H]1OCc1ccc(-c2ccc3c(c2)CC[C@@H]3N2CCN(CC(O)CO)CC2)cc1 (stereo partly drawn) = 6.00 to 7.00
12. CC1(C)CN(C2CCN(CCO)CC2)c2ccc(-c3ccc(CO[C@H]4COC[C@@H]4NC(=O)c4cc(-c5ccc(F)nc5)cnc4N)cc3)cc21 = 6.00 to 7.00
13. Cn1cc(-c2cnc(N)c(C(=O)N[C@H]3C[C@H](O)C[C@@H]3OCc3ccc(-c4ccc5c(c4)C(C)(C)CN5C4CCN(CCO)CC4)cc3)c2)cn1 (relative stereo) = 7.00 to 8.00
14. Cn1cc(-c2cnc(N)c(C(=O)N[C@H]3CCC[C@@H]3OCc3ccc(-c4ccc5c(c4)ncn5C4CCN(CCO)CC4)cc3)c2)cn1 = < 6.00
15. Cn1ccc(-c2cnc(N)c(C(=O)N[C@H]3CCC[C@@H]3OCc3ccc(-c4ccc5c(c4)CC[C@@H]5N4CCN(CC(O)CO)CC4)cc3)c2)cc1=O (stereo partly drawn) = 6.00 to 7.00
16. Cn1cc(-c2cnc(N)c(C(=O)N[C@H]3CCC[C@@H]3OCc3ccc(-c4ccc5c(c4)C4(CCOC4)CN5C4CCN(CCO)CC4)cc3)c2)cn1 (stereo partly drawn) = 6.00 to 7.00
17. Cn1cc(-c2cnc(N)c(C(=O)N[C@H]3CCC[C@@H]3OCc3ccc(-c4ccc5c(c4)C(C)(C)C[C@H]5N4CCN(CCO)CC4)cc3)c2)cn1 = < 6.00
18. COc1ccnc(N)c1C(=O)N[C@H]1CCC[C@@H]1OCc1ccc(-c2ccc3c(c2)C(C)(C)CC3N2CCN(C)CC2)cc1 (stereo partly drawn) = 6.00 to 7.00
19. Cn1cc(-c2cnc(N)c(C(=O)N[C@H]3CCC[C@@H]3OCc3ccc(-c4ccc5c(c4)C(C)(C)CN5C4CCN(CCO)CC4)cc3)c2)ccc1=O = 7.00 to 8.00
20. Cn1cc(-c2cnc(N)c(C(=O)N[C@H]3CCC[C@@H]3OCc3ccc(-c4ccc5c(ccn5C(F)F)c4)cc3)c2)cn1 = < 6.00
21. Cn1cc(-c2cnc(N)c(C(=O)N[C@H]3CCC[C@@H]3OCc3ccc(-c4ccc5[nH]c(C(F)(F)F)cc5c4)cc3)c2)cn1 = < 6.00
22. Cn1cc(-c2cnc(N)c(C(=O)N[C@H]3CCC[C@@H]3OCc3ccc(-c4ccc5c(c4)CCCN5C4CCN(CCO)CC4)cc3)c2)cn1 = 7.00 to 8.00
23. Cc1nn(C)cc1-c1cnc(N)c(C(=O)N[C@H]2COC[C@@H]2OCc2ccc(-c3ccc4c(c3)C(C)(C)CN4C3CCN(CCO)CC3)cc2)c1 = 7.00 to 8.00
24. CN(C)C1c2ccc(-c3ccc(CO[C@H]4CCC[C@@H]4NC(=O)c4cc(-c5cnn(C)c5)cnc4N)cc3)cc2CC1(C)C (stereo partly drawn) = < 6.00
